- TARGET_OF_ASSAY: T1, human C5 (human, UniProt P01031 19-673; P01031 678-1676)
- T1 construct: Captured by an anti-C5 antibody in the ELISA
- ASSAY_NOTES: cross reactivity, capture ELISA with anti-C5 capture antibody, anti-His detection
OUTCOME_MEASURE: binding result

1. MOR09124 Fab (Fab, V domains shown, HCDR2-matured derivative of parental MOR08305) VH: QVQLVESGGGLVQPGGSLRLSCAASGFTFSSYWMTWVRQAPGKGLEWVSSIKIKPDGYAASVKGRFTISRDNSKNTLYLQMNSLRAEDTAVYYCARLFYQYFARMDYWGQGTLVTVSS VL: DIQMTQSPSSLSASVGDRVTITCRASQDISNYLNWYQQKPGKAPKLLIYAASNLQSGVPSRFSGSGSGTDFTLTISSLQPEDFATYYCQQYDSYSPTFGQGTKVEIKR: no binding
2. MOR09373 Fab (Fab, V domains shown, also called Fab 9373) VH: QVQLVQSGAEVKKPGASVKVSCKASGYTFTSYSMHWVRQAPGQGLEWMGLINPYNGNTHYAQKFQGRVTMTRDTSISTAYMELSSLRSEDTAVYYCARMLRFDVWGQGTLVTVSS VL: DIALTQPASVSGSPGQSITISCTGTSSDGGGYNYVSWYQQHPGKAPKLMIYGVSNRPSGVSNRFSGSKSGNTASLTISGLQAEDEADYYCQTYTRYSDSPVFGGGTKLTVLG: no binding
3. MOR09141 Fab (Fab, V domains shown, also called Fab 9141) VH: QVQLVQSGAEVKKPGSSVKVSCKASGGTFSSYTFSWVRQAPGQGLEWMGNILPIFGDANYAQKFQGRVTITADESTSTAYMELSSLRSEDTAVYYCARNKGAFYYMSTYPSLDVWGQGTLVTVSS VL: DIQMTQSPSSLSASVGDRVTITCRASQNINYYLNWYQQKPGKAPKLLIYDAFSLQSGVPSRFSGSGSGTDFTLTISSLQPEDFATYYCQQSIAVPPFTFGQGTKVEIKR: no binding
